Reference source: PubChem BioAssay AID1919008

Test system: DMS-114 complex spheroids with HUVEC/MSC, growth % test/control
Experiment: Anticancer human tumor DMS-114 cell line growth inhibition [AhR]; active means viability on the fitted dose curve at most 10% of control; inactive means the rest;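 further: spheroids exposed to agents for 7 days before readout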
Conditions: second compound 10 µM; first compound 1 µM
Choose the fitting class; nothing outside active, inactive is accepted.

Consider the worked cases shown below.
[[record]]
molecule = "COc1ccc([C@@H](O)c2cc(-c3ncnc4cc(N5CCOCC5)ccc34)c(F)cc2Cl)nn1 + Cc1ccccc1N=Nc1ccc(NC(=O)c2ccnn2C)c(C)c1"
target = "DMS-114 complex spheroids with HUVEC/MSC, growth % test/control"
class = "inactive"

[[record]]
molecule = "CC1(C)CCC(CN2CCN(c3ccc(C(=O)NS(=O)(=O)c4ccc(NCC5CCOCC5)c([N+](=O)[O-])c4)c(Oc4cnc5[nH]ccc5c4)c3)CC2)=C(c2ccc(Cl)cc2)C1 + Cc1ccccc1N=Nc1ccc(NC(=O)c2ccnn2C)c(C)c1"
target = "DMS-114 complex spheroids with HUVEC/MSC, growth % test/control"
class = "inactive"


Please share the test call associated with O=C(C=Cc1cccc(S(=O)(=O)Nc2ccccc2)c1)NO + Cc1cncc(-c2nc(NCCc3c[nH]c4ccccc34)c3ncn(C(C)C)c3n2)c1 .
active

Try the molecule CC(C)c1c(-c2ccccc2)nc2c(C#N)c[nH]n2c1=O + Cc1ccccc1N=Nc1ccc(NC(=O)c2ccnn2C)c(C)c1
inactive

Try the molecule CC1COCCN1c1cc(-c2ccnn2C)c2ccnc(-c3ccn[nH]3)c2n1 (stereo unspecified) + CC(CO)NC(=O)c1cc(-c2ccc(Cl)cc2)nn(-c2cnn(C)c2)c1=O
inactive

Try the molecule COc1cccc2c1C(=O)c1c(O)c3c(c(O)c1C2=O)CC(O)(C(=O)CO)CC3OC1CC(N)C(O)C(C)O1 (stereo unspecified) + Cc1ccccc1N=Nc1ccc(NC(=O)c2ccnn2C)c(C)c1
active

* * *

Test system: DMS-114 complex spheroids with HUVEC/MSC, growth % test/control
Test: Anticancer human tumor DMS-114 cell line growth inhibition [AhR];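 further: spheroids exposed to agents for 7 days before readout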
Conditions: second compound 10 µM; first compound 0.0316 µM; stronger effect = lower value
Would you mind classing the entries by viability, T/C? Ranges: bin A (below 30%), bin B (30% to below 90%), bin C (90% or more)

Consider the worked cases shown below.
[[record]]
compound = "CC1COCCN1c1cc(C2(S(C)(=N)=O)CC2)nc(-c2ccnc3[nH]ccc23)n1 (configuration not stated) + Cc1ccccc1N=Nc1ccc(NC(=O)c2ccnn2C)c(C)c1"
class = "bin C"

[[record]]
compound = "COc1cccc2c1C(=O)c1c(O)c3c(c(O)c1C2=O)CC(O)(C(=O)CO)CC3OC1CC(N)C(O)C(C)O1 (configuration not stated) + Cc1cncc(-c2nc(NCCc3c[nH]c4ccccc34)c3ncn(C(C)C)c3n2)c1"
class = "bin A"

[[record]]
compound = "CC[C@@]1(O)C(=O)OCc2c1cc1n(c2=O)Cc2cc3c(CN(C)C)c(O)ccc3nc2-1 + Cc1cncc(-c2nc(NCCc3c[nH]c4ccccc34)c3ncn(C(C)C)c3n2)c1"
class = "bin A"

[[record]]
compound = "CC[C@@]1(O)C(=O)OCc2c1cc1n(c2=O)Cc2cc3c(CN(C)C)c(O)ccc3nc2-1 + Cc1ccccc1N=Nc1ccc(NC(=O)c2ccnn2C)c(C)c1"
class = "bin B"

[[record]]
compound = "CC(C)c1c(-c2ccccc2)nc2c(C#N)c[nH]n2c1=O + CC(CO)NC(=O)c1cc(-c2ccc(Cl)cc2)nn(-c2cnn(C)c2)c1=O"
class = "bin C"

[[record]]
compound = "Nc1ccccc1NC(=O)c1ccc(CNC(=O)OCc2cccnc2)cc1 + Cc1cncc(-c2nc(NCCc3c[nH]c4ccccc34)c3ncn(C(C)C)c3n2)c1"
class = "bin B"

[[record]]
compound = "CC1COCCN1c1cc(-c2ccnn2C)c2ccnc(-c3ccn[nH]3)c2n1 (configuration not stated) + CC(CO)NC(=O)c1cc(-c2ccc(Cl)cc2)nn(-c2cnn(C)c2)c1=O"
class = "bin B"


Kindly review the next compound as well.
Class label required: COc1cc(Nc2ncc3c(n2)-c2ccc(Cl)cc2C(c2c(F)cccc2OC)=NC3)ccc1C(=O)O + CC(CO)NC(=O)c1cc(-c2ccc(Cl)cc2)nn(-c2cnn(C)c2)c1=O
bin A
